- TESTED SYSTEM: Factor X (FX), P00742
- Sequence (P00742 whole entry, looked up): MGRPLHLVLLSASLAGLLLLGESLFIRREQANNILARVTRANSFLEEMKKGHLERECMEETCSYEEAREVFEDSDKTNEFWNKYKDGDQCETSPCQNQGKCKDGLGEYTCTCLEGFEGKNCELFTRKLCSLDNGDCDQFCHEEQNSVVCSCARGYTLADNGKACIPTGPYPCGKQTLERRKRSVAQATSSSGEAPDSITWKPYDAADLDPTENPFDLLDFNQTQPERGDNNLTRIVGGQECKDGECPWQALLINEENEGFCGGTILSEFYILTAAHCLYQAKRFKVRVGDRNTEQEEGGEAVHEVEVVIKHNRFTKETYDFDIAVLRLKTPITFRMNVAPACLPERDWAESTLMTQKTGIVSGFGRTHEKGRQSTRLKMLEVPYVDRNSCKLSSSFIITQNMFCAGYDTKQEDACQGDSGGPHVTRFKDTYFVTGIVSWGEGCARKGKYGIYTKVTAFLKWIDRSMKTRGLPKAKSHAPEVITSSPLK
READOUT LABEL: kcat/KM (M^-1s^-1), FX activation by FIXa in the Xase complex (M⁻¹ s⁻¹)
One number for each entry, in M⁻¹ s⁻¹.

// solved cases for kcat/KM (M^-1s^-1), FX activation by FIXa in the Xase complex follow
FIXa-R318Y/R338E/E410N (protein) chain 1: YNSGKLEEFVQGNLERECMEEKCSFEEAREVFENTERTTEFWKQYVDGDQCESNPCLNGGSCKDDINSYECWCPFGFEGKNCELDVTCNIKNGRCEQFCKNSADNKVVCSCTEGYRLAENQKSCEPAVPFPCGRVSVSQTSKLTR chain 2: VVGGEDAKPGQFPWQVVLNGKVDAFCGGSIVNEKWIVTAAHCVETGVKITVVAGEHNIEETEHTEQKRNVIRIIPHHNYNAAINKYNHDIALLELDEPLVLNSYVTPICIADKEYTNIFLKFGSGYVSGWGRVFHKGYSALVLQYLRVPLVDRATCLESTKFTIYNNMFCAGFHEGGRDSCQGDSGGPHVTEVEGTSFLTGIISWGEECAMKGKYGIYTKVSRYVNWIKNKTKLT ... 3.4e+08
FIXa-D104N/K106S/R318Y/R338E/E410N (protein) chain 1: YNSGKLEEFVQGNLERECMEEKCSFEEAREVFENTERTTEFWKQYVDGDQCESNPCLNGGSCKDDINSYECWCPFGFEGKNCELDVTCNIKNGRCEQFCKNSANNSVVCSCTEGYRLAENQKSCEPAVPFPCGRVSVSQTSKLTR chain 2: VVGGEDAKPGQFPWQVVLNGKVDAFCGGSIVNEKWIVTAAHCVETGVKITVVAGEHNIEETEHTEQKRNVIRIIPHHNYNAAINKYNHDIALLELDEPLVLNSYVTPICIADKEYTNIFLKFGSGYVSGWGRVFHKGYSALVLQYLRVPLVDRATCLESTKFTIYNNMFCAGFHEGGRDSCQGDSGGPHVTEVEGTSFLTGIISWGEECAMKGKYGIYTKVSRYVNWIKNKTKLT ... 2.6e+08

Then this protein:
Enquiry: Tell me measured kcat/KM (M^-1s^-1), FX activation by FIXa in the Xase complex for FIXa-R318Y/R338E/R403E/E410N (protein) chain 1: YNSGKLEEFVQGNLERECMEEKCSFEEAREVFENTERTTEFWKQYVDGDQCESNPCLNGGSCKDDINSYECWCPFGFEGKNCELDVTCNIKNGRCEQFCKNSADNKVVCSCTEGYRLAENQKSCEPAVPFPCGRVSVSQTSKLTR chain 2: VVGGEDAKPGQFPWQVVLNGKVDAFCGGSIVNEKWIVTAAHCVETGVKITVVAGEHNIEETEHTEQKRNVIRIIPHHNYNAAINKYNHDIALLELDEPLVLNSYVTPICIADKEYTNIFLKFGSGYVSGWGRVFHKGYSALVLQYLRVPLVDRATCLESTKFTIYNNMFCAGFHEGGRDSCQGDSGGPHVTEVEGTSFLTGIISWGEECAMKGKYGIYTKVSEYVNWIKNKTKLT please.
Return: 1.5e+08

Entry source: patent US20210230570
